# STUDY TARGET: HLA-A*11:01
# PROTOCOL DESCRIPTION: IEDB peptide-MHC binding, purified MHC/direct/fluorescence; filed as Kd, often an IC50 or EC50 that approximates it; bounds were set here for any values at or beyond the usual limits of such assays
# CONDITION CONTEXT: source organism: Vibrio vulnificus CMCP6
MEASURED QUANTITY: Kd (nM)

{"ITEM SEQUENCE": "SVMSTFFWE", "MEASURED QUANTITY": "Kd", "VALUE OBSERVED": 350}

----------
# STUDY TARGET: HLA-A*02:01
# PROTOCOL DESCRIPTION: IEDB peptide-MHC binding, purified MHC/direct/fluorescence; filed as Kd, often an IC50 or EC50 that approximates it; bounds were set here for any values at or beyond the usual limits of such assays
# CONDITION CONTEXT: source organism: Vibrio parahaemolyticus
pKd: −log10 of the molar value.
MEASURED QUANTITY: pKd

{"ITEM SEQUENCE": "YPKCDLVEL", "MEASURED QUANTITY": "pKd", "VALUE OBSERVED": "≤ 4.70"}
